Below, each entry is listed with its recorded SARS-CoV-2 infection rate.
- Tested on: Vero E6 infected with SARS-CoV-2
- measurement.notes: SARS-CoV-2 infection rate relative to infected DMSO; higher = more infection, active = 60 or less
- conditions: 24 h

# compound, SARS-CoV-2 infection rate, %
rows = [
    ("C[C@@]12CCc3occc3[C@H]1CC[C@@]13C[C@@H](CC[C@H]12)[C@@](O)(CO)C3 [cafestol] (10 µM)", 112),
    ("CC(C)Oc1ccc(-c2nc(-c3cccc4c3CC[C@H]4NCCC(=O)O)no2)cc1C#N (10 µM)", 96.5),
    ("CCCS(=O)(=O)Nc1ccc(F)c(C(=O)c2c[nH]c3ncc(Cl)cc23)c1F (10 µM)", 114),
    ("O=NO [sodium-nitrite] (10 µM)", 108),
    ("O=[N+]([O-])c1cn2c(n1)OC[C@@H](OCc1ccc(OC(F)(F)F)cc1)C2 [pretomanid] (10 µM)", 112),
    ("CCNC(=O)C#Cc1ccc2c(C(=Nc3ccc(CN(C)C)cc3)c3ccccc3)c(O)[nH]c2c1 (0.833333 µM)", 99),
    ("COc1cc(N2CCC(N)CC2)ccc1Nc1ncc(Cl)c(-c2c[nH]c3ccccc23)n1 (0.833333 µM)", 102),
    ("CC(C(=O)O)c1ccc2c(c1)Cc1cccnc1O2 (stereo not drawn) [pranoprofen] (10 µM)", 122),
]

----------
- Test system: Vero E6 infected with SARS-CoV-2
- measurement.notes: inhibition of SARS-CoV-2 cytopathic effect; higher = more antiviral protection, active = above 15
- conditions: 833.33 nM; 48 h
Below, each entry is listed with its recorded inhibition of SARS-CoV-2 cytopathic effect.
outcome.measure: inhibition of SARS-CoV-2 cytopathic effect (%)

# compound, measurement.units, observed
measured = [
    ("Cc1nnc(C(C)C)n1C1C[C@H]2CC[C@@H](C1)N2CC[C@H](NC(=O)C1CCC(F)(F)CC1)c1ccccc1 (stereo in doubt)", "%", -0.21),
    ("NC(=O)[C@@H]1CC[C@@H]2CN1C(=O)N2OS(=O)(=O)O", "%", 0.95),
    ("O=C(CCCN1CCC(n2c(=O)[nH]c3ccccc32)CC1)c1ccc(F)cc1", "%", 2.15),
    ("C=CCN1CCc2nc(N)sc2CC1 [talipexole]", "%", -0.07),
    ("COc1ccc(-c2cc(=O)c3c(O)cc(O)cc3o2)cc1O", "%", -3.02),
    ("CN[C@@H](C)C(=O)N[C@H](C(=O)N1CCC[C@H]1C(=O)N[C@H]1c2ccccc2C[C@H]1OCC#CC#CCO[C@@H]1Cc2ccccc2[C@@H]1NC(=O)[C@@H]1CCCN1C(=O)[C@@H](NC(=O)[C@H](C)NC)C1CCCCC1)C1CCCCC1", "%", -6.56),
    ("CC(=O)c1ccc(NS(C)(=O)=O)c(Oc2ccc(F)cc2F)c1", "%", 1.88),
    ("CCCCCN(CCCOC)C(=O)[C@@H](CCC(=O)O)NC(=O)c1ccc(Cl)c(Cl)c1 [dexloxiglumide]", "%", -1.51),
    ("CO[C@H]1/C=C\\C=C(/C)C(=O)NC2=CC(=O)C(NCCN(C)C)=C(C[C@@H](C)C[C@H](OC)[C@H](O)[C@@H](C)/C=C(\\C)[C@@H]1OC(N)=O)C2=O", "%", 1.28),
    ("CC(=O)Nc1c(I)c(C(=O)O)c(I)c(N(C)C(C)=O)c1I", "%", 2.48),
    ("CC(C)(CO)[C@@H](O)C(=O)NCCC(=O)O", "%", -0.87),
    ("O=C(Nc1cc(C(F)(F)F)cc(C(F)(F)F)c1)c1cnc(Cl)nc1C(F)(F)F", "%", -4.18),
    ("CC(C)(C)c1ccc(C(=O)Nc2cn3cc(-n4ccnc4)ccc3n2)cc1", "%", 2.13),
    ("CC(=O)N[C@H](Cc1ccc2ccccc2c1)C(=O)N[C@H](Cc1ccc(Cl)cc1)C(=O)N[C@H](Cc1cccnc1)C(=O)N[C@@H](CO)C(=O)N[C@@H](Cc1ccc(O)cc1)C(=O)N[C@H](CCCNC(N)=O)C(=O)N[C@@H](CC(C)C)C(=O)N[C@@H](CCCNC(=N)N)C(=O)N1CCC[C@H]1C(=O)N[C@H](C)C(N)=O", "%", 5.13),
    ("CN(C)c1cccc(Oc2cnc(Nc3cccc(O)c3)nc2)c1", "%", 2.09),
    ("CCOC(=O)n1ccn(C)c1=S", "%", -3.71),
]
